Target: HLA-A2/WT1 235-243 (…) complex (human, biotin at a specific biotinylation site at the C-terminus)
Assay: ELISA on wells coated with the named HLA-A2/peptide monomer, HRP anti-Flag detection, OD 490 nm
value type: binding result

[[record]]
binder = "S3.6 scFv (scFv, Soluble scFv, Ni-NTA purified, detected with anti-Flag) scFv: EVQLLESGGGLVQPGGSLRLSCAASGFTFSSYAMSWVRQAPGKGLEWVSLIDPWGQETLYADSVKGRFTISRDNSKNTLYLQMNSLRAEDTAVYYCAKLTGRFDYWGQGTLVTVSSGGGGSGGGGSGGGGSTDIQMTQSPSSLSASVGDRVTITCRASQSISNYLNWYQQKPGKAPKLLIYSASQLQSGVPSRFSGSGSGTVFTLTISSLQPEDFATYYCQQGPGTPNTFGQGTKVEIKRA"
reported = "no binding"

[[record]]
binder = "Q2L scFv (scFv, Clone45 with VH-Q50L and VL-Q53L; Soluble scFv; also called scFv Q2L) scFv: EVQLLESGGGLVQPGGSLRLSCAASGFTFSSYAMSWVRQAPGKGLEWVSLIDPWGQETLYADSVKGRFTISRDNSKNTLYLQMNSLRAEDTAVYYCAKLTGRFDYWGQGTLVTVSSGGGGSGGGGSGGGGSTDIQMTQSPSSLSASVGDRVTITCRASQSISSYLNWYQQKPGKAPKLLIYSASLLQSGVPSRFSGSGSGTDFTLTISSLQPEDFATYYCQQGPGTPNTFGQGTKVEIKRA"
reported = "no binding"

[[record]]
binder = "S3.3 scFv (scFv, Soluble scFv, Ni-NTA purified, detected with anti-Flag) scFv: EVQLLESGGGLVQPGGSLRLSCAASGFTFSSYAMSWVRQAPGKGLEWVSLIDPWGQETLYADSVKGRFTISRDNSKNTLYLQMNSLRAEDTAVYYCAKLTGRFDYWGQGTLVTVSSGGGGSGGGGSGGGGSTNIQMTQSPSSLSASVGDRVTITCRASQSISSYLNWYQQKPGKAPKLLIYSASLLQSGVPSRFSGNGSGTDFTLTISSLQPEDFATYYCQQGPGTPNTFGQGTKVEIKRA"
reported = "no binding"

